- target.or.system: recombinant ASK1 (Homo sapiens, UniProt Q99683)
- Construct: purchased Carna Biosciences
- Sequence (Q99683 654-971 limits assumed): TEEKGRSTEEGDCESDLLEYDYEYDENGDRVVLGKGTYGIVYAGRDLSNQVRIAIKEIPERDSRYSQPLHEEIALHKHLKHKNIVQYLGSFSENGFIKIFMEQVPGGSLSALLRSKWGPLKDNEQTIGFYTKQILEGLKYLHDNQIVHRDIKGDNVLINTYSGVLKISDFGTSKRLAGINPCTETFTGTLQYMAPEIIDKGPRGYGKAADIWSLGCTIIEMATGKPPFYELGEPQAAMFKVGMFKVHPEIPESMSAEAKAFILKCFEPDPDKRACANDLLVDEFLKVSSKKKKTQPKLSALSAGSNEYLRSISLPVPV
- method: ASK1 Biochemical Assay (HTRF KinEASE-STK S3)
- condition.details: ATP 100 μM; read-out: Biochemical Assay IC50
Listing: IC50 of selected compounds
measured.metric: IC50

compound | target.or.system | measured.metric | observed.measurement
CC(C)n1cnnc1-c1cccc(N2CCN(c3ccc(NC(C(N)=O)C4CC4)cc3)C2=O)n1 (centres unmarked) | recombinant ASK1 (Homo sapiens, UniProt Q99683) | IC50 | < 100 nM
CC(C)C(C#N)C1CN(c2ccc(N3CCN(c4cccc(-c5nncn5C(C)C)n4)C3=O)cc2)C1 (centres unmarked) | recombinant ASK1 (Homo sapiens, UniProt Q99683) | IC50 | < 100 nM
CC(C)n1cnnc1-c1cccc(N2CCN(c3cccc(-c4cnn(C)c4)c3)C2=O)n1 | recombinant ASK1 (Homo sapiens, UniProt Q99683) | IC50 | < 1000 nM
CC(C)n1cnnc1-c1cccc(N2CCN(c3ccc(S(C)(=O)=O)cc3)C2=O)n1 [Example 1065] | recombinant ASK1 (Homo sapiens, UniProt Q99683) | IC50 | > 1000 nM
CC(C)n1cnnc1-c1cccc(N2CCN(c3ccc(O)cc3)C2=O)n1 | recombinant ASK1 (Homo sapiens, UniProt Q99683) | IC50 | > 1000 nM
CC(C)c1cc(N2CCN(c3cccc(-c4nncn4C(C)C)n3)C2=O)ccc1S(C)(=O)=O | recombinant ASK1 (Homo sapiens, UniProt Q99683) | IC50 | > 1000 nM
CC(C)n1cnnc1-c1cccc(N2CCNC2=O)n1 | recombinant ASK1 (Homo sapiens, UniProt Q99683) | IC50 | < 100 nM
CC(C)n1cnnc1-c1cccc(N2CCN(c3ccncc3)C2=O)n1 | recombinant ASK1 (Homo sapiens, UniProt Q99683) | IC50 | < 100 nM
